biological target: human CD33 variant R122E (human, UniProt P20138 18-364); assay: flow cytometry, IgG on cells expressing the mutant
Sequence (P20138 18-364 R122E limits assumed): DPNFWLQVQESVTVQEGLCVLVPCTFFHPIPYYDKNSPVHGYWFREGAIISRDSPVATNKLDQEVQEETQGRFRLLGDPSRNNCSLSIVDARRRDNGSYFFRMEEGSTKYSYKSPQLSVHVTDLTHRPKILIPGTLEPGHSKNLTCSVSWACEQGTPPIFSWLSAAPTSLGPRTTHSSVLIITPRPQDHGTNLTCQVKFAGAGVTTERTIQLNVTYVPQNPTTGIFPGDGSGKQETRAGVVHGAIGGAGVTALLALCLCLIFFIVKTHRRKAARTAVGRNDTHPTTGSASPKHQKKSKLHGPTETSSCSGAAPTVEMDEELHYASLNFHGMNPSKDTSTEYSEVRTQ
measured_endpoint: Mean % WT Binding

Guide cases for Mean % WT Binding, answers given:
| binder | Mean % WT Binding |
| --- | --- |
| Refmab #1 (antibody, human IgG1, V domains shown, Tested in IgG format; human IgG1 (Absolute Antibody hP67.6, Cat. No. Ab00283-10.0); also called hP67.6) VH: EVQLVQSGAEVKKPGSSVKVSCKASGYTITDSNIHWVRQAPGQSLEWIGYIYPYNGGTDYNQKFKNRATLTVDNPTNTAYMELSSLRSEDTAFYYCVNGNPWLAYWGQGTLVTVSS VL: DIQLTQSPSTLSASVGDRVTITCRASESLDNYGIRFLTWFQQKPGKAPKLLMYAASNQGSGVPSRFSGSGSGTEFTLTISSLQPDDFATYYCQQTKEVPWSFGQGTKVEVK | 110 % of WT |
| Refmab #3 (antibody, human IgG1, V domains shown, Tested in IgG format; human IgG1 Fc silent (PG-LALA)) VH: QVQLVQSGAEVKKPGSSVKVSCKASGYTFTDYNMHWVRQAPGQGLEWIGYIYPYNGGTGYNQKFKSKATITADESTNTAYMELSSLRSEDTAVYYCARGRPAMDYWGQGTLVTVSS VL: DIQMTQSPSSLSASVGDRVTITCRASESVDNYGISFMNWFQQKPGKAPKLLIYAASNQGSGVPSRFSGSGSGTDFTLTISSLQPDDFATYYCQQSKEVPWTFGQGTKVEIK | 101 % of WT |

Name the recorded Mean % WT Binding for Refmab #2 (antibody, human IgG1, V domains shown, Tested in IgG format; human IgG1 Fc silent (PG-LALA)) VH: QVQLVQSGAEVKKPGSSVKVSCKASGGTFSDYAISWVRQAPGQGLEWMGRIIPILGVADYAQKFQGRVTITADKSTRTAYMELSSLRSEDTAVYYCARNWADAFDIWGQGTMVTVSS VL: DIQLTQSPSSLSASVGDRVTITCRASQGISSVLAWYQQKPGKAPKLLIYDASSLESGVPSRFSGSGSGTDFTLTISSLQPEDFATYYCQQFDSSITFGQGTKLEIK .
0.6 % of WT

The measured values listed here are drawn from patent US20260242735A1.
